System: Klebsiella pneumoniae
Experiment: Antibacterial activity against Klebsiella pneumoniae by broth microdilution method
Assay type: functional
MEASUREMENT_TYPE: MIC (µg/mL)
Kindly answer with a numeric value in µg/mL, unit omitted.

response.value for Cc1ccc(C2C/C(=N\N=C3/NC(=O)CS3)C(C)C(c3ccc(C)cc3)N2)cc1 (centres undefined) (field: MIC) = 256

Lab note: CC1/C(=N/N=C2\NC(=O)CS2)CC(c2ccc(Cl)cc2)NC1c1ccc(Cl)cc1 (centres undefined) gave MIC of 128

Looking up CC1/C(=N/N=C2\NC(=O)CS2)CC(c2ccccc2)NC1c1ccccc1 (centres undefined) , I see its MIC listed as 64

What the record says about CCOC(=O)Cc1csc(N/N=C2\CC(c3ccccc3)N(C)C(c3ccccc3)C2C)n1 (centres undefined) : MIC is 32

For CCOC(=O)Cc1csc(N/N=C2\CC(c3ccc(C)cc3)NC(c3ccc(C)cc3)C2C)n1 (centres undefined) the compound record lists MIC as 256

The compound identified as CCOC(=O)Cc1csc(N/N=C2\CC(c3ccc(Br)cc3)NC(c3ccc(Br)cc3)C2C)n1 (centres undefined) registered its MIC at 8

The reported numbers originate from ChEMBL document CHEMBL1154090.
